System: HL-60 human promyelocytic leukemia
protocol description: In vitro inhibition rate to tumor cells (MTT), HL-60
Format: cell-based
settings: Homo sapiens, HL-60, 50 μg/ml; Table 1; read-out: inhibition rate, Results (%) HL-60
Experimental: (1) Single cell suspension was seeded into 96-well plates (×3) (the cells was diluted in the PRMI-1640 minimum medium to 3×10^4 cells/ml, […] diluted cells/well). […] The experiments were performed in quadruplicate. (2) The medium was removed. Solutions of the anti-tumor agents (15 compounds) were prepared in a freshly prepared medium at the concentrations indicated in the following Table. […] (5) OD value (λ=570 nm) was measured with an Enzyme-Linked Detector. […]
Listed next: entries and their corresponding inhibition at 50 µg/mL.
quantity: inhibition at 50 µg/mL (%)

1. CC(C)C1CC23OC1(O)CC(O)(CO)C2CCC3C (stereo not shown) [Compound 32, Curcumol dihydroxy compound]    14
2. C=C1CC2(OC(=O)C(C)C)OC3(CC2C(C)C)C(C)CCC13 (stereo not shown) [Compound 3, Curcumol isobutyrate]    3.21
3. C=C1CC2(OC(=O)CCC)OC3(CC2C(C)C)C(C)CCC13 (stereo not shown) [Compound 2, Curcumol butyrate]    12.3
4. CC(C)C1CC23OC1(O)CC(=CN1CCNCC1)C2CCC3C (stereo not shown) [Compound 7, Curcumol piperazine]    90.6

* * *

Tested on: Hela human cervical carcinoma
protocol description: In vitro inhibition rate to tumor cells (MTT), Hela
Type: cell-based
settings: Homo sapiens, HeLa, 50 μg/ml; Table 2 (repeated screening); read-out: inhibition rate, Results (%) Hela
Procedure: (1) Single cell suspension was seeded into 96-well plates (×3) (the cells was diluted in the PRMI-1640 minimum medium to 3×10^4 cells/ml, […] diluted cells/well). […] The experiments were performed in quadruplicate. (2) The medium was removed. Solutions of the anti-tumor agents (15 compounds) were prepared in a freshly prepared medium at the concentrations indicated in the following Table. […] (5) OD value (λ=570 nm) was measured with an Enzyme-Linked Detector. […]
Structures can show the parent of a compound that is named as a salt.
quantity: inhibition at 50 µg/mL

1) CC(C)C1CC23OC1(O)C/C(=C\NC(C)(C)C)C2CCC3C (stereo not shown)    71.4%
2) CC(C)C1CC23OC1(O)CC(=CN1CCNCC1)C2CCC3C (stereo not shown) [Compound 8, Curcumol piperazine hydrochloride]    92%
3) CC(C)C1CC23OC1(O)CC(O)(CO)C2CCC3C (stereo not shown) [Compound 32, Curcumol dihydroxy compound]    80.1%
4) CC(C)C1CC23OC1(O)CC(=CN1CCNCC1)C2CCC3C (stereo not shown) [Compound 7, Curcumol piperazine]    89.3%
5) CC(C)C1CC23OC1(O)CC(C)C2CCC3C (stereo not shown) [Compound 33, hydrogenated curcumol derivative]    59.8%
6) CC(C)C1CC23OC1(O)CC(=CBr)C2CCC3C (stereo not shown) [Compound 17, Curcumol monobromide]    92.4%
7) C=C1CC2(OS(=O)(=O)O)OC3(CC2C(C)C)C(C)CCC13 (stereo not shown) [Compound 20, Curcumol sulfonate]    90.6%

* * *

Tested on: LLC mouse Lewis lung carcinoma
protocol description: In vitro inhibition rate to tumor cells (MTT), LLC
Assay type: cell-based
settings: 50 μg/ml; Table 1
quantity: inhibition rate, Results (%) LLC

1. CC(C)C1CC23OC1(O)CC(=CO[N+](=O)[O-])C2CCC3C (stereo not drawn) [Compound 19, Curcumol mononitrate]    −15.52
2. CC(C)C1CC23OC1(O)CC(CN1CCNCC1)(N1CCNCC1)C2CCC3C.Cl (stereo not drawn) [Compound 42, Curcumol bispiperazine hydrochloride]    9.99
3. CC(C)C1CC23OC1(O)CC(C)(O[N+](=O)[O-])C2CCC3C (stereo not drawn) [Compound 36, Curcumol mononitrate without double bond]    11.56
4. CCCCNC1(C)CC2(OC)OC3(CC2C(C)C)C(C)CCC13 (stereo not drawn)    2.74
5. CC(C)C1CC23OC1(O)CC(CO[N+](=O)[O-])(O[N+](=O)[O-])C2CCC3C (stereo not drawn) [Compound 31, Curcumol dinitrate]    1.13
6. COC12CC(=CBr)C3CCC(C)C3(CC1C(C)C)O2 (stereo not drawn) [Compound 26, Curcumol methyl ether bromide]    11.77
7. CC(=O)OC12CC(=O)C3CCC(C)C3(CC1C(C)C)O2 (stereo not drawn) [Compound 49, Curzerenone acetate]    −0.15
8. C=C1CC2(OC(C)=O)OC3(CC2C(C)C)C(C)CCC13 (stereo not drawn) [Compound 1, Curcumol acetate]    1.30
9. CC(C)C1CC23OC1(O)CC(=CN1CCNCC1)C2CCC3C (stereo not drawn)    85.42
10. CC(C)C1CC23OC1(O)CC(C)(N1CCNCC1)C2CCC3C.Cl (stereo not drawn)    23.35
11. C=C1CC2(OS(=O)(=O)[O-])OC3(CC2C(C)C)C(C)CCC13.[Na+] (stereo not drawn) [Compound 21, Curcumol sodium sulfonate]    10.47
12. CCCCNC=C1CC2(OC)OC3(CC2C(C)C)C(C)CCC13 (stereo not drawn)    −10.89

* * *

target desc: HIV-1 proteinase (HIV-1 PR) (Human immunodeficiency virus type 1 group M subtype B, UniProt P04585)
Construct: HIV-1 proteinase digests the fluorescent-labeled substrate; purchased
protocol description: Screening for in vitro activity against HIV-1 proteinase
Format: biochemical
settings: IC50, five 5× serial dilutions from 50 μg/ml
Listed next: entries and their corresponding IC50.
quantity: IC50

1) CC(C)C1CC23OC1(O)CC(=CN1CCNCC1)C2CCC3C (stereo not shown) [Compound 7, Curcumol piperazine]    > 156 µM
2) C=C1CC2(OS(=O)(=O)O)OC3(CC2C(C)C)C(C)CCC13 (stereo not shown) [Compound 20, Curcumol sulfonate]    > 158 µM
3) CC(C)C1CC23OC1(O)CC1(CO1)C2CCC3C (stereo not shown) [Compound 47, Curcumol epoxy compound]    > 198 µM
4) CC(C)C1CC23OC1(O)CC(=CBr)C2CCC3C (stereo not shown) [Compound 17, Curcumol monobromide]    > 159 µM

* * *

target desc: HIV-1 proteinase (HIV-1 PR) (Human immunodeficiency virus type 1 group M subtype B, UniProt P04585)
Construct: HIV-1 proteinase digests the fluorescent-labeled substrate; purchased
protocol description: Screening for in vitro activity against HIV-1 proteinase
Type: biochemical
settings: 0.40 μg/ml; read-out: Inhibition rate
Counter-ions that a name gives are not always drawn.
quantity: inhibition at 0.4 µg/mL (%)

1) CC(C)C1CC23OC1(O)CC(=CBr)C2CCC3C (stereo not shown) [Compound 17, Curcumol monobromide]    10.7
2) C=C1CC2(OS(=O)(=O)O)OC3(CC2C(C)C)C(C)CCC13 (stereo not shown) [Compound 20, Curcumol sulfonate]    7.44
3) CC(C)C1CC23OC1(O)CC(=CN1CCNCC1)C2CCC3C (stereo not shown) [Compound 8, Curcumol piperazine hydrochloride]    2.64
4) CC(C)C1CC23OC1(O)CC(C)C2CCC3C (stereo not shown) [Compound 33, hydrogenated curcumol derivative]    11.4
5) C=C1CC2(OC(=O)C(C)C)OC3(CC2C(C)C)C(C)CCC13 (stereo not shown) [Compound 3, Curcumol isobutyrate]    13.5
6) C=C1CC2(OC(=O)CCC)OC3(CC2C(C)C)C(C)CCC13 (stereo not shown) [Compound 2, Curcumol butyrate]    8.64
7) CC(C)C1CC23OC1(O)CC1(CO1)C2CCC3C (stereo not shown)    12.3

* * *

Listed next: entries and their corresponding pIC50.
target desc: HIV-1 proteinase (HIV-1 PR) (Human immunodeficiency virus type 1 group M subtype B, UniProt P04585)
Construct: HIV-1 proteinase digests the fluorescent-labeled substrate; purchased
protocol description: Screening for in vitro activity against HIV-1 proteinase
Format: biochemical
settings: IC50, five 5× serial dilutions from 50 μg/ml
pIC50: −log10 of the molar value. Structures can show the parent of a compound that is named as a salt.
quantity: pIC50

1. CC(C)C1CC23OC1(O)CC(C)C2CCC3C (centres unmarked) [Compound 33, hydrogenated curcumol derivative]    < 3.68
2. CC(C)C1CC23OC1(O)CC(=CN1CCNCC1)C2CCC3C (centres unmarked) [Compound 8, Curcumol piperazine hydrochloride]    < 3.81
3. C=C1CC2(OC(=O)C(C)C)OC3(CC2C(C)C)C(C)CCC13 (centres unmarked) [Compound 3, Curcumol isobutyrate]    < 3.79
4. C=C1CC2(OS(=O)(=O)[O-])OC3(CC2C(C)C)C(C)CCC13.[Na+] (centres unmarked) [Compound 21, Curcumol sodium sulfonate]    < 3.83
5. C=C1CC2(OC(=O)CCC)OC3(CC2C(C)C)C(C)CCC13 (centres unmarked) [Compound 2, Curcumol butyrate]    < 3.79

* * *

target desc: HIV-1 proteinase (HIV-1 PR) (Human immunodeficiency virus type 1 group M subtype B)
Construct: HIV-1 proteinase digests the fluorescent-labeled substrate; purchased
protocol description: Screening for in vitro activity against HIV-1 proteinase
Type: biochemical
settings: 2.0 μg/ml; read-out: Inhibition rate
Counter-ions that a name gives are not always drawn.
quantity: inhibition at 2 µg/mL (%)

1) CC(C)C1CC23OC1(O)CC(=CN1CCNCC1)C2CCC3C (centres unmarked) [Compound 8, Curcumol piperazine hydrochloride]    5.27
2) CC(C)C1CC23OC1(O)CC(=CBr)C2CCC3C (centres unmarked) [Compound 17, Curcumol monobromide]    -6
3) C=C1CC2(OC(=O)C(C)C)OC3(CC2C(C)C)C(C)CCC13 (centres unmarked) [Compound 3, Curcumol isobutyrate]    9.64
4) CC(C)C1CC23OC1(O)CC1(CO1)C2CCC3C (centres unmarked) [Compound 47, Curcumol epoxy compound]    12.9
5) C=C1CC2(OC(=O)CCC)OC3(CC2C(C)C)C(C)CCC13 (centres unmarked) [Compound 2, Curcumol butyrate]    2.98
6) C=C1CC2(OS(=O)(=O)O)OC3(CC2C(C)C)C(C)CCC13 (centres unmarked) [Compound 20, Curcumol sulfonate]    10.6
7) CC(C)C1CC23OC1(O)CC(=CN1CCNCC1)C2CCC3C (centres unmarked) [Compound 7, Curcumol piperazine]    4.31
8) CC(C)C1CC23OC1(O)CC(C)C2CCC3C (centres unmarked) [Compound 33, hydrogenated curcumol derivative]    10.6
